Cited source for all entries: PubChem BioAssay AID1259407

System: CCRIS mutagenicity, Ames/micronucleus/aberration tests
Test: CCRIS mutagenicity studies
Conditions: Test System: AMES SALMONELLA TYPHIMURIUM; Strain/Indicator: TA98; Metabolic Activation: RAT LIVER S-9, AROCLOR 1254; Method: STANDARD PLATE
The source made the active and inactive calls. No rule for the calls is given here.
Use one of these outcomes when replying: Yes (active), No (inactive)

Outcome? COc1ccc(N=Nc2ccc(N(C)C)cc2)cc1 Yes

Field: outcome | Entry: CC(C)(c1ccc(O)cc1)c1ccc(O)cc1 No

Recorded test call requested for Cc1ccc(C)c(C)c1C No

Returns: the outcome recorded for O=C1OC(O)C(C(Cl)Cl)=C1Cl (centres undefined) in this assay. No
